Target: HLA-A*02:01 (Homo sapiens, UniProt P04439, D140Y/D185E/D98H/E176V/E277Q/G131W/G231S/I119V/I121R/I166T/I218V/L300P/L318F/N151K/N90K/P208A/P217A/Q86G/Q94H/R138H/R169H/T345S)
Test: MHC binding assay (UV-ligand exchange, anti-β2m ELISA, peptide exchange yield)
Details: binding to HLA-A*02:01
Parameter: Peptide exchange (MHC class I binding score, peptide exchange yield)

Example results:
# Substance, Result
data = [
    ("448 (NLLETKLQL; listed as Homo sapiens) [compound 448]", "“+++” (>50 = +++)"),
    ("362 (TLYGLSVLL; listed as Homo sapiens) [compound 362]", "“+++” (>50 = +++)"),
    ("189 (ALQRKLPYV; listed as Homo sapiens) [compound 189]", "“+++” (>50 = +++)"),
    ("282 (LLADVVPTT; listed as Homo sapiens) [compound 282]", "“+++” (>50 = +++)"),
    ("52 (FLLAHGLGFLL; listed as Homo sapiens) [compound 52]", "“++++” (>75% = ++++)"),
    ("468 (YLRSVGDGETV; listed as Homo sapiens) [compound 468]", "“+++” (>50 = +++)"),
]

Please report Peptide exchange (MHC class I binding score, peptide exchange yield) for every entry that follows.
1. 200 (LLFGSVQEV; listed as Homo sapiens) [compound 200]
2. 354 (LILEGVDTV; listed as Homo sapiens) [compound 354]
3. 215 (QLINHLHAV; listed as Homo sapiens) [compound 215]
4. 95 (SVIPQIQKV; listed as Homo sapiens) [compound 95]
5. 573 (ILVANAIVGV; listed as Homo sapiens) [compound 573]
6. 49 (YLPAVFEEV; listed as Homo sapiens) [compound 49]
7. 199 (ALQDVPLSSV; listed as Homo sapiens) [compound 199]

[reply]
“+++” (>50 = +++)
“++” (>20% = ++)
“+++” (>50 = +++)
“+++” (>50 = +++)
“+++” (>50 = +++)
“+++” (>50 = +++)
“+++” (>50 = +++)

----------
Biological target: HLA-A*02:01 (Homo sapiens, UniProt P04439, D140Y/D185E/D98H/E176V/E277Q/G131W/G231S/I119V/I121R/I166T/I218V/L300P/L318F/N151K/N90K/P208A/P217A/Q86G/Q94H/R138H/R169H/T345S)
Experiment: MHC binding assay (UV-ligand exchange, anti-β2m ELISA, peptide exchange yield)
Details: binding to HLA-A*02:01
Source text: Candidate peptides for T cell based therapies according to the present invention were further tested for their MHC binding capacity (affinity). The individual peptide-MHC complexes were produced by UV-ligand exchange, where a UV-sensitive peptide is cleaved upon UV-irradiation, and exchanged with the peptide of interest as analyzed. Only peptide candidates that can effectively bind and stabilize the peptide-receptive MHC molecules prevent dissociation of the MHC complexes. […]
Parameter: Peptide exchange (MHC class I binding score, peptide exchange yield)

# Substance, Result
records = [
    ("311 (RLYTGMHTV; listed as Homo sapiens) [compound 311]", "“+++” (>50 = +++)"),
    ("382 (ALQNYIKEA; listed as Homo sapiens) [compound 382]", "“++” (>20% = ++)"),
    ("441 (ALLENPKMEL; listed as Homo sapiens) [compound 441]", "“+++” (>50 = +++)"),
    ("396 (ALLPDLPAL; listed as Homo sapiens) [compound 396]", "“+++” (>50 = +++)"),
    ("402 (VLFSGALLGL; listed as Homo sapiens) [compound 402]", "“++” (>20% = ++)"),
    ("601 (SAFPFPVTV; listed as Homo sapiens) [compound 601]", "“+++” (>50 = +++)"),
    ("14 (AAYGGLNEKSFV; listed as Homo sapiens) [compound 14]", "“+++” (>50 = +++)"),
    ("407 (YLMDLINFL; listed as Homo sapiens) [compound 407]", "“+++” (>50 = +++)"),
]

Please state, for each entry, its recorded Peptide exchange (MHC class I binding score, peptide exchange yield).
1. 70 (GLLDYPVGV; listed as Homo sapiens) [compound 70]
2. 66 (FLDENIGGVAV; listed as Homo sapiens) [compound 66]
3. 539 (ALFDAQAQV; listed as Homo sapiens) [compound 539]
4. 270 (LLLDEEGTFSL; listed as Homo sapiens) [compound 270]
5. 224 (TLIDAQWVL; listed as Homo sapiens) [compound 224]

[reply]
“+++” (>50 = +++)
“+++” (>50 = +++)
“+++” (>50 = +++)
“++” (>20% = ++)
“+++” (>50 = +++)

Please state, for each entry, its recorded Peptide exchange (MHC class I binding score, peptide exchange yield).
1. 459 (ALITEVVRL; listed as Homo sapiens) [compound 459]
2. 355 (SIQQSIERLLV; listed as Homo sapiens) [compound 355]
3. 265 (LLFGGTKTV; listed as Homo sapiens) [compound 265]
4. 398 (KLLEEDGTIITL; listed as Homo sapiens) [compound 398]
5. 566 (VIADGGIQNV; listed as Homo sapiens) [compound 566]
6. 525 (VLLEAGEGLVTI; listed as Homo sapiens) [compound 525]

[reply]
1: “++” (>20% = ++); 2: “++” (>20% = ++); 3: “++” (>20% = ++); 4: “++” (>20% = ++); 5: “++” (>20% = ++); 6: “+++” (>50 = +++)
